Origin of the recorded values: ChEMBL document CHEMBL1141502

tested on: HCC 2998; assay: Antiproliferative activity against human HCC2998 cells by sulforhodamine B assay relative to control; format: functional
observed-property: GI50 (µM)

CCCCCCCCCCCC[C@@H](O)[C@H]1CC[C@H]([C@H](O)CCCCCCCCCCCCc2cnc(N)nc2)O1: 89

(a) CCCCCCCCCCCC[C@@H](O)[C@H]1CC[C@H]([C@H](O)CCCCCCCCCCCCc2ccnn2C)O1
(b) CCCCCCCCCCCC[C@@H](O)[C@H]1CC[C@H]([C@H](O)CCCCCCCCCCCCc2cncnc2)O1
Exercise: Between the entries labeled a and b , whose measured GI50 is lower? Provide the label of your selected option as the answer.
Solution: b
(b: 28 µM, a: 80 µM)

* * *

Entries and their GI50
tested on: DU-145; assay: Antiproliferative activity against human DU145 cells by sulforhodamine B assay relative to control; format: functional

Some solved cases for reference:
CCCCCCCCCCCC[C@@H](O)[C@H]1CC[C@H]([C@H](O)CCCCCCCCCCCCc2cnn(C)c2)O1: > 100 µM
CCCCCCCCCCCC[C@@H](O)[C@H]1CC[C@H]([C@H](O)CCCCCCCCCCCCc2cncnc2)O1: 90 µM
CCCCCCCCCCCC[C@@H](O)[C@H]1CC[C@H]([C@H](O)CCCCCCCCCCCCc2ccnn2C)O1: > 100 µM

Exercise: Please look up its GI50: CCCCCCCCCCCC[C@@H](O)[C@H]1CC[C@H]([C@H](O)CCCCCCCCCCCCc2cnc(N)nc2)O1
Solution: > 100 µM

Exercise: Cool, now CCCCCCCCCCCC[C@@H](O)[C@H]1CC[C@H]([C@H](O)CCCCCCCCCCCCc2ncccn2)O1
Solution: > 100 µM

Exercise: And then CCCCCCCCCCCC[C@@H](O)[C@H]1CC[C@H]([C@H](O)CCCCCCCCCCCCC2=C[C@H](C)OC2=O)O1 , what is it?
Solution: > 100 µM

* * *

test system: HCT-116; assay: Antiproliferative activity against human HCT116 cells by sulforhodamine B assay relative to control; type: functional
observed-property: GI50 (µM)

CCCCCCCCCCCC[C@@H](O)[C@H]1CC[C@H]([C@H](O)CCCCCCCCCCCCc2cncnc2)O1: 28

(I) CCCCCCCCCCCC[C@@H](O)[C@H]1CC[C@H]([C@H](O)CCCCCCCCCCCCc2ccnn2C)O1
(II) CCCCCCCCCCCC[C@@H](O)[C@H]1CC[C@H]([C@H](O)CCCCCCCCCCCCc2cnn(C)c2)O1
Exercise: When I and II are compared, which has the higher number for GI50? Your answer should be the label attached to the chosen record.
Solution: II
(II: 70 µM, I: 9.2 µM)

* * *

Each entry below carries its reported GI50.
system: SF-295; experiment: Antiproliferative activity against human SF295 cells by sulforhodamine B assay relative to control; format: functional
Just the number please, in µM, no unit attached.

Illustrative cases are given below, each with its answer.
CCCCCCCCCCCC[C@@H](O)[C@H]1CC[C@H]([C@H](O)CCCCCCCCCCCCc2cncnc2)O1: 25
CCCCCCCCCCCC[C@@H](O)[C@H]1CC[C@H]([C@H](O)CCCCCCCCCCCCc2cnn(C)c2)O1: 24

Exercise: Tell me the measured GI50 of CCCCCCCCCCCC[C@@H](O)[C@H]1CC[C@H]([C@H](O)CCCCCCCCCCCCc2ccnn2C)O1 , please.
Solution: 24

Exercise: Follow-up item: CCCCCCCCCCCC[C@@H](O)[C@H]1CC[C@H]([C@H](O)CCCCCCCCCCCCC2=C[C@H](C)OC2=O)O1 [REL-SOLAMIN]
Solution: 40

Exercise: Same again, this time with CCCCCCCCCCCC[C@@H](O)[C@H]1CC[C@H]([C@H](O)CCCCCCCCCCCCc2cnc(N)nc2)O1
Solution: 56

* * *

assay: Antiproliferative activity against human OVACR3 cells by sulforhodamine B assay relative to control; assay type: functional
observed-property: GI50

CCCCCCCCCCCC[C@@H](O)[C@H]1CC[C@H]([C@H](O)CCCCCCCCCCCCc2ncccn2)O1: > 100 µM
CCCCCCCCCCCC[C@@H](O)[C@H]1CC[C@H]([C@H](O)CCCCCCCCCCCCc2cncnc2)O1: 29 µM
CCCCCCCCCCCC[C@@H](O)[C@H]1CC[C@H]([C@H](O)CCCCCCCCCCCCC2=C[C@H](C)OC2=O)O1 [REL-SOLAMIN]: > 100 µM

Exercise: Fill in: GI50 of CCCCCCCCCCCC[C@@H](O)[C@H]1CC[C@H]([C@H](O)CCCCCCCCCCCCc2ccnn2C)O1 is ___
Solution: > 100 µM

Exercise: Field entry: CCCCCCCCCCCC[C@@H](O)[C@H]1CC[C@H]([C@H](O)CCCCCCCCCCCCc2cnn(C)c2)O1
Solution: > 100 µM

Exercise: Follow-up item: CCCCCCCCCCCC[C@@H](O)[C@H]1CC[C@H]([C@H](O)CCCCCCCCCCCCc2cnc(N)nc2)O1
Solution: > 100 µM

* * *

test system: MKN-7; test: Antiproliferative activity against human MKN7 cells by sulforhodamine B assay relative to control; assay type: functional
observed-property: GI50 (µM)

CCCCCCCCCCCC[C@@H](O)[C@H]1CC[C@H]([C@H](O)CCCCCCCCCCCCc2cncnc2)O1: 6.1
CCCCCCCCCCCC[C@@H](O)[C@H]1CC[C@H]([C@H](O)CCCCCCCCCCCCc2ncccn2)O1: 27
CCCCCCCCCCCC[C@@H](O)[C@H]1CC[C@H]([C@H](O)CCCCCCCCCCCCc2cnn(C)c2)O1: 5.4
CCCCCCCCCCCC[C@@H](O)[C@H]1CC[C@H]([C@H](O)CCCCCCCCCCCCC2=C[C@H](C)OC2=O)O1 [REL-SOLAMIN]: 13

(I) CCCCCCCCCCCC[C@@H](O)[C@H]1CC[C@H]([C@H](O)CCCCCCCCCCCCc2ccnn2C)O1
(II) CCCCCCCCCCCC[C@@H](O)[C@H]1CC[C@H]([C@H](O)CCCCCCCCCCCCc2cnc(N)nc2)O1
Exercise: Consider entries I and II . Which has the numerically lower GI50? Write the label of whichever entry you select.
Solution: I
(I: 6.2 µM, II: 9.4 µM)

* * *

tested on: NCI-H522; assay: Antiproliferative activity against human NCI-H522 cells by sulforhodamine B assay relative to control; format: functional
observed-property: GI50 (µM)

CCCCCCCCCCCC[C@@H](O)[C@H]1CC[C@H]([C@H](O)CCCCCCCCCCCCc2cncnc2)O1: 13
CCCCCCCCCCCC[C@@H](O)[C@H]1CC[C@H]([C@H](O)CCCCCCCCCCCCc2ncccn2)O1: 17
CCCCCCCCCCCC[C@@H](O)[C@H]1CC[C@H]([C@H](O)CCCCCCCCCCCCC2=C[C@H](C)OC2=O)O1: 58

(P) CCCCCCCCCCCC[C@@H](O)[C@H]1CC[C@H]([C@H](O)CCCCCCCCCCCCc2cnc(N)nc2)O1
(Q) CCCCCCCCCCCC[C@@H](O)[C@H]1CC[C@H]([C@H](O)CCCCCCCCCCCCc2cnn(C)c2)O1
(R) CCCCCCCCCCCC[C@@H](O)[C@H]1CC[C@H]([C@H](O)CCCCCCCCCCCCc2ccnn2C)O1
Exercise: Order field: GI50 | Direction: descending (largest first) Please, when replying, give the labels in the order that was requested.
Solution: P, Q, R

* * *

tested on: SF-539; assay: Antiproliferative activity against human SF539 cells by sulforhodamine B assay relative to control; assay type: functional
observed-property: GI50 (µM)
Quick note: give the figure in µM, leave out the unit.

Below, each entry is followed by its recorded GI50 result.
CCCCCCCCCCCC[C@@H](O)[C@H]1CC[C@H]([C@H](O)CCCCCCCCCCCCc2cncnc2)O1: 28
CCCCCCCCCCCC[C@@H](O)[C@H]1CC[C@H]([C@H](O)CCCCCCCCCCCCc2ncccn2)O1: 41
CCCCCCCCCCCC[C@@H](O)[C@H]1CC[C@H]([C@H](O)CCCCCCCCCCCCc2cnn(C)c2)O1: 37
CCCCCCCCCCCC[C@@H](O)[C@H]1CC[C@H]([C@H](O)CCCCCCCCCCCCc2ccnn2C)O1: 37

Now for a further compound.
Exercise: Any idea what GI50 was measured for CCCCCCCCCCCC[C@@H](O)[C@H]1CC[C@H]([C@H](O)CCCCCCCCCCCCc2cnc(N)nc2)O1 ?
Solution: 62

* * *

test: Antiproliferative activity against human OVACR4 cells by sulforhodamine B assay relative to control; format: functional
observed-property: GI50 (µM)
Please state the figure in µM; there is no need to write the unit.

Use the examples below as a reference point.
CCCCCCCCCCCC[C@@H](O)[C@H]1CC[C@H]([C@H](O)CCCCCCCCCCCCc2ccnn2C)O1: 37
CCCCCCCCCCCC[C@@H](O)[C@H]1CC[C@H]([C@H](O)CCCCCCCCCCCCc2ncccn2)O1: 38

Here is the next item to consider.
Exercise: If you can, please state the reported GI50 value of CCCCCCCCCCCC[C@@H](O)[C@H]1CC[C@H]([C@H](O)CCCCCCCCCCCCc2cncnc2)O1 .
Solution: 22
